Data credit: paper PMC3790966

molecular target: PPARγ (Homo sapiens)
Sequence (P37231 231-505 limits assumed): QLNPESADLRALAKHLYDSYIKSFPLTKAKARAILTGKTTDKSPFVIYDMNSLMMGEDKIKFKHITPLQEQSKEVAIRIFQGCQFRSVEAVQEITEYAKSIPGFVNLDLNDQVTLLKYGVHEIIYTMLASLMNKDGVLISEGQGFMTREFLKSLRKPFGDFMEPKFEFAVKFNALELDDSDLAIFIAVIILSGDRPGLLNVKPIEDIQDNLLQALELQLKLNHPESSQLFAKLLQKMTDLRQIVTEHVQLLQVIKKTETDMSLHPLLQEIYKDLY
observed-property: pKi
Kindly note that pKi refers to -log10 of the concentration in mol/L and answer with the value alone.

**Q:** Give pKi (PPARγ (Homo sapiens)) of the following compound: C=CCc1ccc(O)c(-c2ccc(O)c(CC=C)c2)c1
**A:** 4.64
